Target Desc: Tyrosine-protein phosphatase non-receptor type 1 (Homo sapiens)
Sequence (whole entry): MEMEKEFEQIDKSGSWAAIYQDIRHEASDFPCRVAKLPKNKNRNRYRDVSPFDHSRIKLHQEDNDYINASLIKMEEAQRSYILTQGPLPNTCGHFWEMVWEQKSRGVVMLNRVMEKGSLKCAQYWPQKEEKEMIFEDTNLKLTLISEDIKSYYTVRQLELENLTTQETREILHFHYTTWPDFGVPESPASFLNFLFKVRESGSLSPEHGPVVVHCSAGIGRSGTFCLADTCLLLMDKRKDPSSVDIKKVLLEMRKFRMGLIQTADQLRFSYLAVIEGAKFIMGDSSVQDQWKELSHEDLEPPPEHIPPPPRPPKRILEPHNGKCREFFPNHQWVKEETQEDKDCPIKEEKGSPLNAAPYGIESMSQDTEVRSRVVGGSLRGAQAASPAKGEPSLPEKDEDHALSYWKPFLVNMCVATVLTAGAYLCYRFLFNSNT
Assay Protocol: Inhibition of PTP1B (unknown origin) using para-nitro phenyl phosphate as substrate at 10 uM after 30 mins
Recorded Metric: inhibition (%)
One number for each entry, in %.

Worked examples follow.
Data request: Suppose we examine the compound C=C(C)/C=C/C[C@@H](C)[C@H]1CC[C@@]2(C)[C@@H]3C=C[C@@]45O[C@@H](OC)[C@]3(CC[C@]12C)[C@@H]4CC[C@H](O)C5(C)C ; what inhibition value has been reported?
Data returned: 41

Data request: Suppose we examine the compound C=C(C)/C=C/C[C@@H](C)[C@H]1CC[C@@]2(C)[C@@H]3C=C[C@@]45O[C@@H](O)[C@]3(CC[C@]12C)[C@@H]4CC[C@H](O)C5(C)C ; what inhibition value has been reported?
Data returned: 44

Data request: Suppose we examine the compound C[C@H](C/C=C/C(C)(C)O)[C@H]1CC[C@@]2(C)[C@@H]3C=C[C@@]45OC[C@]3(CC[C@]12C)[C@@H]4CC[C@H](O)C5(C)C ; what inhibition value has been reported?
Data returned: 30

Data request: Suppose we examine the compound CO[C@@H]1O[C@]23C=C[C@@H]4[C@@]1(CC[C@]1(C)[C@@H]([C@H](C)C[C@H](C=C(C)C)OC)CC[C@@]41C)[C@@H]2CC[C@H](O)C3(C)C ; what inhibition value has been reported?
Data returned: 32

Data request: Suppose we examine the compound CO[C@H]1O[C@@]23C=C[C@@H]4[C@]1(CC[C@@]1(C)[C@@H]([C@@H](C)C[C@H](C=C(C)C)OC)CC[C@]41C)[C@@H]2CC[C@H](O)C3(C)C ; what inhibition value has been reported?
Data returned: 57

Data request: Suppose we examine the compound CO[C@@H]1O[C@@]23C=C[C@@H]4[C@]1(CC[C@@]1(C)[C@@H]([C@@H](C)C[C@H](C=C(C)C)OC)CC[C@]41C)[C@@H]2CC[C@H](O)C3(C)C ; what inhibition value has been reported?
Data returned: 44

// each compound listed below needs its inhibition
1. C[C@H](C/C=C/C(C)(C)O)[C@H]1CC[C@@]2(C)[C@@H]3[C@@H](O)C=C4[C@@H](CC[C@H](O)C4(C)C)[C@]3(C=O)CC[C@]12C
2. CO[C@H]1O[C@]23C=C[C@@H]4[C@@]1(CC[C@]1(C)[C@@H]([C@H](C)C[C@H](C=C(C)C)OC)CC[C@@]41C)[C@@H]2CC[C@H](O)C3(C)C
3. CO[C@@H]1O[C@]23C=C[C@@H]4[C@@]1(CC[C@]1(C)[C@@H]([C@H](C)C/C=C/C(C)(C)O)CC[C@@]41C)[C@@H]2CC[C@H](O)C3(C)C

Data returned:
-5
32
-7

Data request: Suppose we examine the compound CO[C@@H]1O[C@]23C=C[C@@H]4[C@@]1(CC[C@]1(C)[C@@H]([C@H](C)C/C=C/C(C)(C)OC)CC[C@@]41C)[C@@H]2CC[C@H](O)C3(C)C ; what inhibition value has been reported?
Data returned: 22

###

Exercise: for every item that follows, state its recorded inhibition.
Target Desc: UniProtKB P18031
Assay Protocol: Inhibition of PTP1B (unknown origin) using para-nitro phenyl phosphate as substrate at 30 uM after 30 mins
One number for each entry, in %.

Data request: Suppose we examine the compound CO[C@H]1O[C@]23C=C[C@@H]4[C@@]1(CC[C@]1(C)[C@@H]([C@H](C)C[C@H](C=C(C)C)OC)CC[C@@]41C)[C@@H]2CC[C@H](O)C3(C)C ; what inhibition value has been reported?
Data returned: 62

Data request: Suppose we examine the compound CO[C@H]1O[C@@]23C=C[C@@H]4[C@]1(CC[C@@]1(C)[C@@H]([C@@H](C)C[C@H](C=C(C)C)OC)CC[C@]41C)[C@@H]2CC[C@H](O)C3(C)C ; what inhibition value has been reported?
Data returned: 77

Data request: Suppose we examine the compound CO[C@@H]1O[C@@]23C=C[C@@H]4[C@]1(CC[C@@]1(C)[C@@H]([C@@H](C)C[C@H](C=C(C)C)OC)CC[C@]41C)[C@@H]2CC[C@H](O)C3(C)C ; what inhibition value has been reported?
Data returned: 62

Data request: Suppose we examine the compound C=C(C)/C=C/C[C@@H](C)[C@H]1CC[C@@]2(C)[C@@H]3C=C[C@@]45O[C@@H](O)[C@]3(CC[C@]12C)[C@@H]4CC[C@H](O)C5(C)C ; what inhibition value has been reported?
Data returned: 68

Data request: Suppose we examine the compound C[C@H](C/C=C/C(C)(C)O)[C@H]1CC[C@@]2(C)[C@@H]3C=C[C@@]45OC[C@]3(CC[C@]12C)[C@@H]4CC[C@H](O)C5(C)C ; what inhibition value has been reported?
Data returned: 52

Data request: Suppose we examine the compound CO[C@@H]1O[C@]23C=C[C@@H]4[C@@]1(CC[C@]1(C)[C@@H]([C@H](C)C/C=C/C(C)(C)OC)CC[C@@]41C)[C@@H]2CC[C@H](O)C3(C)C ; what inhibition value has been reported?
Data returned: 37

Data request: Suppose we examine the compound C=C(C)/C=C/C[C@@H](C)[C@H]1CC[C@@]2(C)[C@@H]3C=C[C@@]45O[C@@H](OC)[C@]3(CC[C@]12C)[C@@H]4CC[C@H](O)C5(C)C ; what inhibition value has been reported?
Data returned: 60

Please find the next compound below.
Data request: Suppose we examine the compound CO[C@@H]1O[C@]23C=C[C@@H]4[C@@]1(CC[C@]1(C)[C@@H]([C@H](C)C[C@H](C=C(C)C)OC)CC[C@@]41C)[C@@H]2CC[C@H](O)C3(C)C ; what inhibition value has been reported?
Data returned: 40
